# Tested on: SNB-19 CNS
# Experimental Protocol: NCI tumour cell line growth inhibition, 48 h
Metric Name: TGI

Input line: For O=C1Nc2ccccc2C1(c1c[nH]c2ccccc12)c1c[nH]c2ccccc12 , what is its reported TGI?
Output line: 8.35 µM

Input line: Looking for the measured TGI of CC(=O)OCC1OC(N2C(=S)N[C@H]([C@@H](O)[C@H](O)[C@H](O)CO)[C@H]2O)C(OC(C)=O)C(OC(C)=O)C1OC(C)=O (stereo partly drawn) , can you help?
Output line: > 100 µM

Input line: Sample CC(=O)Oc1ccc2oc(=O)cc(C)c2c1 — what was its TGI?
Output line: > 100 µM

Input line: Reported TGI for COc1cc2c(cc1OCCCNC(=O)/C=C1/C[C@H]3C=Nc4cc(OCc5ccccc5)c(OC)cc4C(=O)N3C1)NC(=O)[C@@H]1CCCN1C2=O : what is it?
Output line: > 100 µM

Input line: Look up TGI for this compound: CC[C@]1(Cc2ccc(OC)c(OC)c2)[C@@H]2C[C@@H](C(=O)OC)ON2O[C@H](OC2CCCC2(c2ccccc2)c2ccccc2)[C@@H]1OC(C)=O (stereo partly drawn)
Output line: > 100 µM

Input line: Please look up its TGI: O=c1c2ccccc2n2c(=S)[nH]nc2n1-c1ccccc1
Output line: > 100 µM

Input line: Can you look up the measured TGI of COc1ccc2c3c1O[C@H]1C(=O)C=CC4(n5[nH]c(=O)n(-c6ccccc6)c5=O)C(C2)N(C)CCC314 (stereo partly drawn) for me?
Output line: > 100 µM

Input line: Looking for the measured TGI of Cc1oc2c(c1C)S(=O)(=O)C(C#N)=CN2 , can you help?
Output line: > 100 µM

====

Kindly state TGI for each of the entries shown.
# System: HCT-15 colon
# Experimental Protocol: NCI tumour cell line growth inhibition, 48 h
Number only, in µM; omit the unit.

Input line: Tell me the measured TGI of CCC[CH2][Sn]([CH2]CCC)([O]C(=O)c1ccc(C)c(N)c1)[O]C(=O)c1ccc(C)c(N)c1 , please.
Output line: 2.01

Input line: Bench note: what TGI did COC1/C=C/C(C)C(OC)CC(O)/C=C/C(C)C(C(C)C(OC)C(C)CCC(=O)C(C)C(C/C=C/N(C)C=O)OC)OC(=O)/C=C/C=C(\C)CC(OC)CC2=CC(=O)O[C@@H](C(C)C(OC)C1)[C@H]2O (stereo not given in full) show?
Output line: 0.62

====

# Test system: M14 melanoma
# Experimental Protocol: NCI tumour cell line growth inhibition, 48 h
Kindly state TGI for each of the entries shown.

Input line: // returns reported TGI for input O=C1CCC(C(=O)O)C2=C1CCCC2 (stereo not given)
Output line: > 100 µM

Input line: Reported TGI for Clc1ccc(C2=NOC(C3CCCCC3)C2)cc1 (stereo not given) : what is it?
Output line: > 100 µM

Input line: Which TGI value is on record for CN(C)CCCNC(=O)N/N=C\c1cccc2ccccc12 ?
Output line: > 10 µM

Input line: Returns the measured TGI for the input compound. Input: COc1cccc2cc(N(C)c3ncnc4ccccc34)ccc12
Output line: 13.7 µM

Input line: Name the recorded TGI for COC(=O)C(CCC1CC(OC)N(C(=O)OCc2ccccc2)C1)N=Cc1ccccc1 (stereo not given) .
Output line: > 100 µM
